Listing of entries alongside the reported EC50.
# system: GLP-1R (Homo sapiens, UniProt P43220)
# Sequence (P43220 24-463): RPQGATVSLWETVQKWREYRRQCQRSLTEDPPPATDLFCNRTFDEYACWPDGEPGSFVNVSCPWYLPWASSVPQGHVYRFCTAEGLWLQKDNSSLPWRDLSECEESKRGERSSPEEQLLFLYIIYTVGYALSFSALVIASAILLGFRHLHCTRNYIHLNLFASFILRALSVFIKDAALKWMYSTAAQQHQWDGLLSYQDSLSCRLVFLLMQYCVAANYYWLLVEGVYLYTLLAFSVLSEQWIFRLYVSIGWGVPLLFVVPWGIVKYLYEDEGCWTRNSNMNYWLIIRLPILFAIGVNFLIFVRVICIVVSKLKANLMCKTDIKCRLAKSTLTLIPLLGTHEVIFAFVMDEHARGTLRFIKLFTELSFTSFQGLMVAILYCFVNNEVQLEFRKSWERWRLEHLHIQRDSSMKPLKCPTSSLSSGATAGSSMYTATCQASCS
# method_summary: GLP-1R agonist cAMP stimulation assay (HTRF cAMP)
# condition: HEK293 cell line expressing GLP-1 target; HTRF cAMP agonist mode, 30 min at RT
Use nM as the unit, but write only the number.

Illustrative cases are given below, each with its answer.
| molecule | result_units | EC50 |
| --- | --- | --- |
| Cc1n[nH]c2c(C)cc(NC(=O)c3ccc4c(c3)nc(CN3CC=C(c5cccc6c5O[C@](C)(c5ccc(Cl)cn5)O6)CC3)n4CC3CCO3)cc12 (stereo partly drawn) | nM | 1.92 |
| Cc1n[nH]c2c(F)cc(NC(=O)c3ccc4c(c3)nc(CN3CCC(c5cccc(OCc6ccc(Cl)cc6F)n5)CC3)n4C[C@@H]3CCO3)cc12 | nM | 0.83 |
| O=C(Nc1ccc2c(c1)C1(CC1)C(=O)N2)c1ccc2c(c1)nc(CN1CCC(c3cccc(OCc4ccc(Cl)cn4)n3)CC1)n2C[C@@H]1CCO1 | nM | 0.75 |
| Cc1n[nH]c2ccc(NC(=O)c3ccc4c(c3)nc(CN3CC=C(c5cccc(OCc6ccc(Cl)cc6F)n5)CC3)n4C[C@@H]3CCO3)c(F)c12 | nM | 0.87 |
| Cc1cc(NC(=O)c2ccc3c(c2)nc(CN2CC=C(c4cccc(OCc5ccc(C#N)cc5F)n4)CC2)n3C[C@@H]2CCO2)cc2c(C3CC3)n[nH]c12 | nM | 1.32 |

Turning now to a further molecule:
Lab note: Cc1n[nH]c2ncc(NC(=O)c3ccc4c(c3)nc(CN3CCC(c5cccc(OCc6ccc(Cl)cc6F)n5)CC3)n4C[C@@H]3CCO3)cc12 gave EC50 of 76.5
